Ref: patent US12601740B2

These records show MIC for E. coli BAA 2471.
assayEndpoint: MIC

>>> df
                                   molecule  endpointvalue
0  CO/N=C(\C(=O)N[C@@H]1C(=O)N2C(C(=O)[O-])=C(C[N+]3(C)CCCC3)CS[C@H]12)c1csc(N)n1 [Cefepime]    > 256 µg/mL
1  CC(C)(O/N=C(\C(=O)N[C@@H]1C(=O)N2C(C(=O)[O-])=C(C[n+]3ccccc3)CS[C@H]12)c1csc(N)n1)C(=O)O [Ceftazidime]    > 256 µg/mL
2  Cc1onc(-c2ccccc2)c1C(=O)N[C@@H]1C(=O)N2[C@@H]1SC(C)(C)[C@@H]2C(=O)O [Oxacillin]    > 256 µg/mL
3  C[C@@H](O)[C@H]1C(=O)N2C(C(=O)O)=C(S[C@@H]3CN[C@H](CNS(N)(=O)=O)C3)[C@H](C)[C@H]12 [Doripenem]      256 µg/mL
4  C[C@@H](O)[C@H]1C(=O)N2C(C(=O)O)=C(S[C@@H]3CN[C@H](C(=O)Nc4cccc(C(=O)O)c4)C3)[C@H](C)[C@H]12 [Ertapenem]    > 256 µg/mL
5  C[C@@H](O)[C@H]1C(=O)N2C(C(=O)O)=C(SCCN=CN)C[C@H]12 [Imipenem]       32 µg/mL
